molecular target: human type 1 glycine transporter (GlyT1) (Homo sapiens, UniProt P48067); construct: T98G cells (glioma cells) expressing human type 1 glycine transporter (GlyT1) were used; assay: Glycine uptake inhibition experiment ([3H]glycine uptake); format: cell-based; conditions: GlyT1
Sequence (P48067 whole entry): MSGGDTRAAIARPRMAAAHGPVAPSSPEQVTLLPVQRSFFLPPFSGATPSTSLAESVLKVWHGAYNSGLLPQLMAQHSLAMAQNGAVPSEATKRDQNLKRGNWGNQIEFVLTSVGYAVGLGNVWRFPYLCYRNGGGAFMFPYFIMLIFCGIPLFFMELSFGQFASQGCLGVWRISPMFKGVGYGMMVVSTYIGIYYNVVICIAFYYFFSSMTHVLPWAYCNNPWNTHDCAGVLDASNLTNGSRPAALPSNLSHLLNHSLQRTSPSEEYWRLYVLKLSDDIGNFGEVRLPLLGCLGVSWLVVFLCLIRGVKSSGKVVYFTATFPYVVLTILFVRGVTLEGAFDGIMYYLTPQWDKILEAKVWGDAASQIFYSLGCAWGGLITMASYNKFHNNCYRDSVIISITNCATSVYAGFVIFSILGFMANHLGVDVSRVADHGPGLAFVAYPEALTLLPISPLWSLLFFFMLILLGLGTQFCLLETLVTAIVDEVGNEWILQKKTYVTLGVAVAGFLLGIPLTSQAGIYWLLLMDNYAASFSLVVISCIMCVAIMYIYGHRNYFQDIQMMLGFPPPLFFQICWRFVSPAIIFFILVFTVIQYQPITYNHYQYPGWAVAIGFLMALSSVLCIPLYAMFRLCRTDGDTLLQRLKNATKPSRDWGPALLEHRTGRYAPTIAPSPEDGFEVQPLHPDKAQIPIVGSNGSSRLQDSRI
log10 IC50 values, listed per item
Form field - Quantity: IC50; Unit: nM; Scale: log10

O=C(NC(c1cccc(Br)c1)C1(O)CCC(F)(F)CC1)c1nccc(C(F)(F)F)c1Cl (single isomer, unassigned) [Compound 89] | 3.04
O=C(NC(c1ccccc1Cl)C1(O)CCC(F)(F)CC1)c1nccc(C(F)(F)F)c1Cl (single isomer, unassigned) [Compound 147] | 2.04
CCn1cc(-c2cccc(C(NC(=O)c3ccc(F)cc3C(F)(F)F)C3(O)CCC(F)(F)CC3)c2)cn1 (single isomer, unassigned) [Compound 216] | 3.74
O=C(NC(c1cccnc1Cl)[C@]1(O)CC[C@@H](F)CC1)c1cccc(C(F)(F)F)c1Cl (single isomer, unassigned) | 2.54
O=C(NC(c1ccc(F)c(Cl)c1)[C@]1(O)CC[C@@H](F)CC1)c1nccc(C(F)(F)F)c1Cl (single isomer, unassigned) [Compound 225] | 2.59

IN: Fill in: log10 IC50 of O=C(NC(c1cc(Cl)ccc1F)[C@]1(O)CC[C@@H](F)CC1)c1ccnc(C(F)(F)F)c1Cl (single isomer, unassigned) is ___
OUT: 2.74

IN: I'd like to know its log10 IC50. The compound in question is CCn1cc(-c2cccc(C(NC(=O)c3cccc(C(F)(F)F)c3Cl)C3(O)CCC(F)(F)CC3)c2)cn1 (stereo not shown) [Compound 118]
OUT: 2.41

IN: // log10 IC50 lookup, key: O=C(NC(c1cc(Cl)ccc1F)[C@]1(O)CC[C@@H](F)CC1)c1nccc(C(F)(F)F)c1Cl (single isomer, unassigned)
OUT: 2.40

IN: Param item = CCn1cc(-c2cccc(C(NC(=O)c3c(Cl)ccc(C(F)(F)F)c3Cl)C3(O)CCC(F)(F)CC3)c2)cn1 (single isomer, unassigned) [Compound 222] ; retrieve measured log10 IC50.
OUT: 2.28

IN: Requested field: log10 IC50. Item: O=C(NC(c1cccc(F)c1Cl)[C@]1(O)CC[C@@H](F)CC1)c1ncc(C(F)(F)F)cc1-n1nccn1 (single isomer, unassigned)
OUT: 2.04

IN: State the recorded log10 IC50 for this entry: O=C(N[C@@H](c1cccc(Br)c1)[C@]1(O)CC[C@@H](F)CC1)c1nccc(C(F)(F)F)c1Cl
OUT: 1.98

IN: What does the record list as log10 IC50 for O=C(NC(c1cccnc1Cl)[C@]1(O)CC[C@@H](F)CC1)c1nccc(C(F)F)c1Cl (single isomer, unassigned) ?
OUT: 3.08

IN: Fill in the blank: the reported log10 IC50 of O=C(NC(c1cccc(Br)c1)C1(O)CCCCC1)c1nccc(C(F)(F)F)c1Cl (stereo not shown) [Compound 38] is ____.
OUT: 1.78

IN: State the recorded log10 IC50 for this entry: O=C(NC(c1cccc(F)c1Cl)[C@]1(O)CC[C@@H](F)CC1)c1nc(C(F)(F)F)ccc1Cl (single isomer, unassigned)
OUT: 2.95

IN: State the recorded log10 IC50 for this entry: O=C(NC(c1cccc(-c2cccnc2)c1)C1(O)CCC(F)(F)CC1)c1nccc(C(F)(F)F)c1Cl (stereo not shown)
OUT: 2.15

IN: I have this compound here, O=C(NC(c1cc(F)cc(Cl)c1)C1(O)CCCC1)c1nccc(C(F)(F)F)c1Cl (stereo not shown) [Compound 88] , and I need its recorded log10 IC50.
OUT: 2.26
